Molecular target: T1, ZFP SBS#1207 (synthetic)
T1 chain: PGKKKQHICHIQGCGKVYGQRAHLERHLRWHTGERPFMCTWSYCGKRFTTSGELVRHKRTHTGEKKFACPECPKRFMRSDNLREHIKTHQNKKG
Experiment: EMSA
Settings: tags: MBP fusion
value_kind: Kd (nM)
One number for each entry, in nM.

Reported Kd ( CAGGCTGGA (dsDNA) DNA 1: CAGGCTGGA DNA 2: TCCAGCCTG ) = 0.45
